Tested on: K-562 leukemia
Method description: NCI-60 one-dose screen, 48 h (100 = growth as untreated, 0 = no growth, -100 = all killed)
Assay setup: 10 µM unless noted
This is part of a sample that, as a whole, favours compounds with a hit. Of some 83,000 tested, about 20% had one in any assay.
This listing pairs molecules with measured growth.
Number only, in %; omit the unit.

Example cases with answers are listed next.
Structure smiles | growth (%)
O=C1C=C(SCCO)C(=O)c2ccccc21 | -38.4
C[C@@H]1NC(=O)[C@H](Cc2ccccc2)N(Cc2cccnc2)C1=O | 89
COc1cc([C@@H](CCO)C[C@H](C)c2ccc3ccccc3c2)cc(OC)c1OC | 12.1
CC[C@H](Nc1nc(N)nc(C)c1C#N)c1nc2cccc(CN(C)c3ncc(C(=O)NO)cn3)c2c(=O)n1-c1ccccc1 | 8.69
COCCn1cc(-c2csc(-c3c[nH]c4ccccc34)n2)c2cccnc21 | 18.1

Value lookup for growth; key = Cc1nc2sc(C(=O)Nc3cccc(Cl)c3C)c(N)c2cc1C(=O)/C=C/c1ccccc1
10.2

For the molecule shown here, C=C1C(=O)O[C@H]2[C@H]1CC/C(CNC(=O)Cc1c[nH]c3ccccc13)=C\CC[C@@]1(C)O[C@@H]21 , give the reported growth.
-12.2

What value of measured growth is listed for O=C1C(Cl)=C(Nc2ccccc2)C(=O)c2ccccc21 ?
-14.8

Using the record for COC(=O)/C(CCC=C(C)C)=C1\[C@@H](OC(C)=O)C[C@@]2(C)[C@H]1C/C(=N/O)[C@H]1[C@@]3(C)CC/C(=N\O)[C@@H](C)[C@@H]3CC[C@@]12C , report its growth.
83.6

---

Tested on: MDA-MB-231 breast
Method description: NCI-60 one-dose screen, 48 h (100 = growth as untreated, 0 = no growth, -100 = all killed)
Assay setup: 10 µM unless noted
About 83,000 compounds went through this panel and 20% of them were active in at least one assay; those are over-represented in the sample as a whole. Active and inactive are the calls of the source. The calls were made as follows: active = growth percent below 10; inactive = the rest.
Property label: growth

Some molecules with recorded growth:
Molecule | growth
O=C1O[C@@H](c2ccccc2Cl)[C@@H]2c3cc4c(cc3CCN12)OCO4 | 97.2% (inactive)
c1cc(OCCN2CCCC2)ccc1CNc1ccc2nc(CCC3CCCCC3)[nH]c2c1 | 11.2% (inactive)

Shifting focus to the molecule that follows.
GET /values?readout=growth&item= COc1cc(-c2ccc[nH]2)[nH]c1/C=C1\N=C(C)C(CC(=O)OCC(C)(C)C)=C1C
-57.2% (active)

---

Test system: A498 renal
Method description: NCI-60 one-dose screen, 48 h (100 = growth as untreated, 0 = no growth, -100 = all killed)
Assay setup: 10 µM unless noted
This is part of a sample that, as a whole, favours compounds with a hit. Of some 83,000 tested, about 20% had one in any assay.
Tag: condition met if measured growth is not below 90%, condition not met if it is.

Test whether the compound CN(C)CCC(=O)C1CC1 records growth of 90% or higher.
condition met

Record O=C(Nc1nc(Cl)nc(Nc2ccc(N3CCOCC3=O)cc2)n1)c1ccc(Cl)s1 ; criterion: growth no lower than 90%. Met?
condition not met

Test whether the compound O=C(Oc1ccc2c(c1)sc1nc(-c3ccccc3)[nH]c(=O)c12)C(F)(F)F records growth of 90% or higher.
condition not met

# check: growth of CC1(C)CC[C@]23CC[C@]4(C)[C@H](CC[C@@H]5[C@@]6(C)C/C(=C/O)C(=O)C(C)(C)[C@@H]6CC[C@]54C)[C@H]2[C@H]1OC3 is greater than or equal to 90%
condition met

Hi team, for Oc1c(CN2CCC(N3CCOCC3)CC2)cc(Cc2cc(CN3CCC(N4CCOCC4)CC3)c(O)c3ncccc23)c2cccnc12 , is the recorded growth at or above 90%?
condition not met

Say whether COc1ccc(Nc2ncc(I)c(NCCCNC(=O)C3CCC3)n2)cc1 shows growth of 90% or more.
condition not met

Test whether the compound CNC(=O)c1cc(Oc2ccc3c(c2)sc2nc(-c4cc(C(F)(F)F)cc(C(F)(F)F)c4)cn23)ccn1 records growth of 90% or higher.
condition not met

Is it the case that C/C(=N\Nc1ccccc1)c1ccc(NC2=CC(=O)c3ccccc3C2=O)cc1 has growth reaching or exceeding 90%?
condition met

Please check the record C=CN(C(=O)N1CCN(c2cc3c(cc2F)c(=O)c(C(=O)O)cn3C2CC2)CC1)c1nc(-c2ccccc2)cs1 and state if its growth is at or above 90%.
condition not met

Determine whether this compound has growth no lower than 90%: COC(=O)Cn1c2c(c3c(OC)cccc31)C(=O)c1ccccc1-2
condition met

Hi team, for CC(C)(C)OC(=O)CN1CCc2c(sc3ncnc(N4CCN(c5ccc(F)cc5)CC4)c23)C1 , is the recorded growth at or above 90%?
condition not met

Item CNC(=O)Nc1ccc(-c2ccc3ncnc(Nc4cccc(Cl)c4)c3c2)cc1 with growth of 90% or above?
condition not met

Is the recorded value of growth equal to or greater than 90% for this compound? COCCn1cc(-c2nc(-c3c[nH]c4ncccc34)cs2)c2ccccc21
condition not met

---

Test system: TK-10 renal
Method description: NCI-60 one-dose screen, 48 h (100 = growth as untreated, 0 = no growth, -100 = all killed)
Assay setup: 10 µM unless noted
About 83,000 compounds went through this panel and 20% of them were active in at least one assay; those are over-represented in the sample as a whole.
Below, each entry is listed with its recorded growth.
# unit: % | format: bare number

Compound | growth [%]
Cc1ccc(O)c(NC(=O)c2cccc(Nc3ccnc(C(F)(F)F)c3)c2)c1 | 92.2
CN(C)CCn1c(=O)c2ccccc2n2nc3ccccc3c12 | 97.9
Nc1ncnc2c1N=C(c1ccc(F)cc1)CC(c1cccc(Nc3ccnc4cc(Cl)ccc34)c1)N2 (stereo not given) | 105

State the recorded growth for this entry: O=C(C1=Cc2cc3ccccc3n2Cc2cnnn21)c1ccc(F)cc1
107

Tell me the measured growth of CCN(CC)CCOc1ccc2c(-c3ccccc3)c(-c3ccc(OC)cc3)c(=O)oc2c1 , please.
75.9

---

System: NCI-H23 lung
Method description: NCI-60 one-dose screen, 48 h (100 = growth as untreated, 0 = no growth, -100 = all killed)
Assay setup: 10 µM unless noted
Compounds without any hit were thinned out: in the full panel of roughly 83,000, 20% have a hit.
Hi, to clarify the labels: Yes covers growth from 70% upward, No covers anything below 70%.

Structure smiles | Assayed target | Discrete label
COCCn1cc(-c2csc(-c3c[nH]c4ccccc34)n2)c2cccnc21 | NCI-H23 lung | No

Check the entry Cn1c(=O)[nH]c(=O)c2nc3c(nc21)-c1ccccc1C3=O : does growth equal or exceed 70%?
Yes

Dear colleague, could you confirm whether N[C@@H]1CCC[C@H]1NCCCCN1C(=O)c2cccc3cc([N+](=O)[O-])cc(c23)C1=O has growth at or above 70%?
No

Confirm if growth reported for the molecule CN(C)CCCn1c2c(c3ccncc3c1=O)C(=O)c1ccccc1-2 is 70% or above.
No

# check: growth of Cc1cc2oc(/C=C/c3ccccc3)cc(=O)c2c(C)c1Cl is greater than or equal to 70%
Yes

Decide: is the reported value of growth for Cc1c(C(C)(C)O)cn2ncnc(Oc3ccc(NC(=O)Nc4ccc(Cl)c(C(F)(F)F)c4)c(F)c3)c12 equal to or greater than 70%?
No

Quick check: does Cc1ccc(C(=O)c2ccc(CC(=O)N/N=C/c3cccc(O)c3O)n2C)cc1 have growth greater than or equal to 70%?
No

Is it the case that Clc1ccc2nn3c4ccccc4c(OCCN4CCOCC4)nc3c2c1 has growth reaching or exceeding 70%?
Yes

Check the entry CCn1cc(Cc2cc(C(=O)Nc3cc4cc(OC)c(OC)cc4c(C)n3)ccc2Cl)cn1 : does growth equal or exceed 70%?
No

---

Tested on: IGROV1 ovarian
Method description: NCI-60 one-dose screen, 48 h (100 = growth as untreated, 0 = no growth, -100 = all killed)
Assay setup: 10 µM unless noted
This is part of a sample that, as a whole, favours compounds with a hit. Of some 83,000 tested, about 20% had one in any assay. Active and inactive are the calls of the source. The calls were made as follows: active = growth percent below 10; inactive = the rest.
Quick reference for growth among some molecules

Molecule | Assayed target | Result
O=C(Nc1cccnc1Nc1ccccc1)c1cn(Cc2cccc(Oc3ccccc3)c2)nn1 | IGROV1 ovarian | 78.1% (inactive)

Which value of growth has been reported for Nc1ccc(-c2ccncc2)cc1NC(=O)N1CCCC1 in the records?
99.4% (inactive)

Quick check: growth of Oc1c(CN2CCC(N3CCOCC3)CC2)cc(Cc2cc(CN3CCC(N4CCOCC4)CC3)c(O)c3ncccc23)c2cccnc12 ?
25% (inactive)

Give its growth value. Item: COc1ccc(Oc2ccc(/C=C/C(=O)c3ccc(OC)c(OC)c3)cc2)cc1
85.5% (inactive)

growth lookup needed for COc1ccc(C2C3=C(COC3=O)N(CCO)c3cc4c(cc32)OCO4)cc1OC (stereo not given) , thanks.
60.9% (inactive)

Entry source: PubChem BioAssay (NCI)
